Kindly state Kd for each of the entries shown.
# test_target: T1, MtrA (Mycobacterium tuberculosis H37Rv, UniProt P9WGM7 1-228)
# T1 sequence: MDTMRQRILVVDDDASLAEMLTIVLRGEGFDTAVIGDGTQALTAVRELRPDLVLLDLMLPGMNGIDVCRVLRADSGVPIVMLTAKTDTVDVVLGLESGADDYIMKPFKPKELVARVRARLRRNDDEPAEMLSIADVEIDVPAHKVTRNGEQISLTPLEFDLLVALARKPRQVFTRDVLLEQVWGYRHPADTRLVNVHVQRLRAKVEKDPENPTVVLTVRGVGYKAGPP
# experiment_summary: BLI
# reported_conditions: protein: recombinant; tags: His6 (pET28a, BamHI/XhoI; N-terminal, inferred from stop codon in reverse primer); chain copies: 2; blunt
Note: unit µM is implicit; provide only the numeric part.

Kindly note the recorded Kd for Rv3859c G20A T21C (dsDNA) DNA 1: GTTACGTGATCGAATTGTGACCCAGG DNA 2: CCTGGGTCACAATTCGATCACGTAAC , which is 0.124

Kindly note the recorded Kd for Rv3859c G20A T21G (dsDNA) DNA 1: GTTACGTGATCGAATTGTGAGCCAGG DNA 2: CCTGGCTCACAATTCGATCACGTAAC , which is 15.7

Kindly note the recorded Kd for Rv3859c G20C (dsDNA) DNA 1: GTTACGTGATCGAATTGTGCTCCAGG DNA 2: CCTGGAGCACAATTCGATCACGTAAC , which is 7120

Kindly note the recorded Kd for Rv3859c G20T (dsDNA) DNA 1: GTTACGTGATCGAATTGTGTTCCAGG DNA 2: CCTGGAACACAATTCGATCACGTAAC , which is 4380

Kindly note the recorded Kd for Rv3859c G20A (dsDNA) DNA 1: GTTACGTGATCGAATTGTGATCCAGG DNA 2: CCTGGATCACAATTCGATCACGTAAC , which is 0.178

Kindly note the recorded Kd for Rv3859c G20A T21A (dsDNA) DNA 1: GTTACGTGATCGAATTGTGAACCAGG DNA 2: CCTGGTTCACAATTCGATCACGTAAC , which is 19.5
